ASSAY TARGET: ETS1 (UniProt P14921)
Sequence: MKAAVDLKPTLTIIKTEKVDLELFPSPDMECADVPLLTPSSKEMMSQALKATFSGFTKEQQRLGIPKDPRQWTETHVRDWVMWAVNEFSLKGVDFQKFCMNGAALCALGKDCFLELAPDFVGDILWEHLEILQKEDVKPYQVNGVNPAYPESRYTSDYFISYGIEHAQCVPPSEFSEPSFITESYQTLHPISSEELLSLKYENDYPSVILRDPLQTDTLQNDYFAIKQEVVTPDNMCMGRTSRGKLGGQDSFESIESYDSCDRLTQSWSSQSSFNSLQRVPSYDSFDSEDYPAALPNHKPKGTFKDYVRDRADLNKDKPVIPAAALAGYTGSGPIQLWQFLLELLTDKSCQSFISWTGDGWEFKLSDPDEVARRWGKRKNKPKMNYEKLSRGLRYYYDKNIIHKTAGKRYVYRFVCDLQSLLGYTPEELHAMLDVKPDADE
ASSAY: ETS1 binding intensity (PBM fluorescence) in presence of RUNX1, normalised to ETS1-only experiment (arbitrary fluorescence units); higher = stronger binding
ASSAY SETUP: ETS1 concentration 1 nM; RUNX1 concentration 25 nM
Answer each item with its documented ETS1 binding intensity.
One number for each entry.

| SEQUENCE | ETS1 binding intensity |
| --- | --- |
| GCAGAGAGATTGGCCGGATGCGGTGGCTCACGCCTT | 8930 |
| TACAGCTGGAACGTCCTGTGGTTAACATTCTGCTCT | 568 |
| GAAAGGGTTCATCCAGGAAACCACAACCCAGTGCCG | 1820 |

Look at each sequence and report its ETS1 binding intensity.
1. TTTACAGGAAATTACAGGGGTTAAACCAAACCACAA
2. GCGCCCGGAAGGAAGGCTGGGGTAGGTTGTGGTTTC
3. CTGTCATCTTCCTGACAGCACGCCCACAAAGGACCA
4. GAGTGGGGGTGGGGAGGAAGCCACAGGGCCGGGCTG
5. TGGCGCTTCCTGTCGCTACCGCTGCGGCCCAGGGCC

Reply |
[1140, 2740, 377, 771, 763]

###

ASSAY TARGET: ETS1 (UniProt P14921)
Sequence: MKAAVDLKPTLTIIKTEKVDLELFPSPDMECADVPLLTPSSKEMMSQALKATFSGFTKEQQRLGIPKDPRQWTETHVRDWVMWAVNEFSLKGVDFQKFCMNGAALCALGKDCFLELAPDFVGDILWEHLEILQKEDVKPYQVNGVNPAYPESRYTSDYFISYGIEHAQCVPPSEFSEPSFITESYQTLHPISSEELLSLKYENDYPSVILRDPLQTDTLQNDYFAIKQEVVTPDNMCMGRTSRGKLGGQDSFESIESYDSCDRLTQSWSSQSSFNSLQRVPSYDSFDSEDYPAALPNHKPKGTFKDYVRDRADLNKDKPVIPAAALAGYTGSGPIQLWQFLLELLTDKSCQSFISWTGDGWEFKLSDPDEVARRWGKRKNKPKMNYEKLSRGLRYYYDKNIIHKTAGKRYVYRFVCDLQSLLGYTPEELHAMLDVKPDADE
ASSAY: ETS1 binding intensity (PBM fluorescence), ETS1 alone (arbitrary fluorescence units); higher = stronger binding
ASSAY SETUP: ETS1 concentration 1 nM; RUNX1 concentration 0 nM
Threshold rule: ETS1 binding intensity greater than or equal to 1000 is met; below that, not met.

| SEQUENCE | DISCRETE LABEL |
| --- | --- |
| GTTCTCCACATCCTGTTCCGTAGCTGTGGTGCACCG | met |

Ask | Tell me whether ETS1 binding intensity is at least 1000 here: TGCAGTCGTGAAAAAGGAAGTGGTTAAAGTGGATAC
Reply | met

Ask | Tell me whether ETS1 binding intensity is at least 1000 here: GCTTACGTCACGTCCGGCGCCTGCGGCCCACCCCTC
Reply | not met

Ask | Tell me whether ETS1 binding intensity is at least 1000 here: AGCCGCCACTTCCTGTCTCTGCGGGTGCATGCTCTT
Reply | met

###

ASSAY TARGET: RUNX1 (UniProt Q01196)
Sequence (Q01196 whole entry): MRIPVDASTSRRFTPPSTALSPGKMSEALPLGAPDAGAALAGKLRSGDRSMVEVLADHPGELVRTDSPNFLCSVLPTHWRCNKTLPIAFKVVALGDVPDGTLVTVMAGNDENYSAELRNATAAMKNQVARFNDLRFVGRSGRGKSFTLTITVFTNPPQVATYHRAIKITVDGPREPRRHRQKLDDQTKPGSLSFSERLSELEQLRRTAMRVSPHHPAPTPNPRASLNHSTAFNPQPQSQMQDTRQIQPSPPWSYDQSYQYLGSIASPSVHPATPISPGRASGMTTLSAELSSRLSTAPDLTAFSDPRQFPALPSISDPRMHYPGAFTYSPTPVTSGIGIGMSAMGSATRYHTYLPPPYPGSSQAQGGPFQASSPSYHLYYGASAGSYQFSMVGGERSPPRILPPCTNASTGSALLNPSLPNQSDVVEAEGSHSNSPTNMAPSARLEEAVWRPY
ASSAY: RUNX1 binding intensity (PBM fluorescence), RUNX1 alone (arbitrary fluorescence units); higher = stronger binding
ASSAY SETUP: RUNX1 concentration 2 nM; ETS1 concentration 0 nM
Answer each item with its documented RUNX1 binding intensity.
Answers are plain numbers.

| SEQUENCE | ASSAY ENDPOINT | REPORTED VALUE |
| --- | --- | --- |
| TGATCAGCAAAAGGAAGTGGTTAACATGGCCCAGAA | RUNX1 binding intensity | 825 |
| GGGCGGAAGTGCGTCACTATGTCCGACCCGCAGTGC | RUNX1 binding intensity | 706 |
| GGGCAGGCCGGATGTGGGAGACCACAAAGCCCAAGG | RUNX1 binding intensity | 820 |
| TGGCTGTGTCCCGGAAGTGGTCATAAGCTGGGTCCC | RUNX1 binding intensity | 730 |
| ATCATCTAGGAGACAGGATGTGGTTAGGGTGTTAAA | RUNX1 binding intensity | 1070 |

Look at each sequence and report its RUNX1 binding intensity.
1. TCAGCTGACACAGGAAGTGGTAAAGCTATTATCTGT
2. CCCCTCAGCTTCCGGGTGCTGCGGCCGCGGCCGAGA
3. AGAAGCTGCACCCGGAAATGAAACCACCAGGACCTC
4. GGCTTCCTGCCCAACTACCAAGAAAAAGCCACAAAG
5. AGGACCGGAAGTGCCCGAGGGCGGCCGCAGAACGGT

Reply |
735
827
887
1100
719

###

ASSAY TARGET: RUNX1 (UniProt Q01196)
ASSAY: RUNX1 binding intensity (PBM fluorescence) in presence of ETS1, normalised to RUNX1-only experiment (arbitrary fluorescence units); higher = stronger binding
ASSAY SETUP: RUNX1 concentration 2 nM; ETS1 concentration 25 nM
ASSAY ENDPOINT: RUNX1 binding intensity
Give bare numbers.

The examples below pair each entry with its known result.
| SEQUENCE | ASSAY ENDPOINT | REPORTED VALUE |
| --- | --- | --- |
| AACCATTACAGGATGTGAGATTCAAACCACTAACAG | RUNX1 binding intensity | 1180 |
| GTTTGAAGGGAAGTGGGTGTTGACCTGCGGGCAACT | RUNX1 binding intensity | 969 |
| CTGGTTTCATTTCCGGGTGCGGCTTCTGTCATAAAG | RUNX1 binding intensity | 2460 |
| GAGTTCTAGACTACAGGATGTGGTTAGAAGAAAAGA | RUNX1 binding intensity | 4800 |
| CCTTTACGTTTTCCTGTTGCGGGTTCTATCGCTCTG | RUNX1 binding intensity | 3260 |
| CAGATTCCCGGAAAGGGGGACATGTAGCCGCAAAAG | RUNX1 binding intensity | 1040 |

Look at each sequence and report its RUNX1 binding intensity.
1. GCGCGGGCAACTTCCGGTGTGGGTGACGAGTGGTGG
2. GGCGGAAGCTGCCGCTGCCTTGCGCCCCCACACACG
3. CCCTTCCGCGTGGGTTGCACCTGCTAACCACAGAGC
4. TGCTGCAGCGGCGCTTCCTGGTGGTCAGGGCGCCAT

Reply |
1: 2700; 2: 1040; 3: 1600; 4: 924

Look at each sequence and report its RUNX1 binding intensity.
1. TCGTGTTCTCTTCCGTTCTGTGGTAGCTTTTTGGTA
2. TGTCTTCAGGAAGTGTAGCAGGTGTTGAGGTCAAGC

Reply |
1: 1870; 2: 914

###

ASSAY TARGET: ETS1 (UniProt P14921)
Sequence: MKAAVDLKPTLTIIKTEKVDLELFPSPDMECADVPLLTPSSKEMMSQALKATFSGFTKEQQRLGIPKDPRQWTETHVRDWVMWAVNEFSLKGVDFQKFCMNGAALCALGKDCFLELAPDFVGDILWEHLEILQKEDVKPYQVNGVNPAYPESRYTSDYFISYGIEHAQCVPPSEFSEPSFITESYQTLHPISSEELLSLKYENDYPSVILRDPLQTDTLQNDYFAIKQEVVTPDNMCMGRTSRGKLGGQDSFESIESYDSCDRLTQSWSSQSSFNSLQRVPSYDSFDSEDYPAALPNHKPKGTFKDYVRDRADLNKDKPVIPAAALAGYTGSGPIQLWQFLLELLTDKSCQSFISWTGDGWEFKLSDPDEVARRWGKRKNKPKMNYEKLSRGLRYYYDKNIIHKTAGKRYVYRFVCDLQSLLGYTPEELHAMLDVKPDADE
ASSAY: ETS1 binding intensity (PBM fluorescence), ETS1 alone (arbitrary fluorescence units); higher = stronger binding
ASSAY SETUP: ETS1 concentration 1 nM; RUNX1 concentration 0 nM
Threshold rule: ETS1 binding intensity greater than or equal to 600 is y; below that, n.

| SEQUENCE | DISCRETE LABEL |
| --- | --- |
| CCTGCCGAGGAAGTCCCACGTCACTGCGGTTAGAGT | n |
| CCACCGTCCCCGGAAATAACCGCGCCTGCCTCTCAA | y |
| GCTTGCTCCCACAGGAAACCGCAGGCTTCGGGCACA | y |
| CGTTTCCTGTCTGGGACTGCGCCCACGCGGTCACGT | y |

Proceed to the following item.
Ask | Tell me whether ETS1 binding intensity is at least 600 here: TATTGTGTACTTCCCCTTCATGTTGTGGTTGGCTTT
Reply | n
